Test system: PPARg homodimer (NR concentration 180 nM)
Test: PBM binding z-score (relative to random genomic background probes); higher = stronger binding; sequences stand for … in GC…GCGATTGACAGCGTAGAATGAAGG
Measured PBM binding z-score accompanies every entry in the list below.
Output spec: single numeric token, no unit.

# annotated cases, reported PBM binding z-score shown
Item sequence	PBM binding z-score
TCGAGTAGGTTACCAATGGGGCATTCAACTTTCT	0.301
CGTCAAAGTTCTACTAAGGTAACGTAAAGCACGC	0.249
TCTCGGAGGACAGGAAGGTCAGAGCTTTCCAGAG	0.357

Form entry - test system: PPARg homodimer (NR concentration 180 nM); read-out: PBM binding z-score; sequence: `ATATGTAGGTTATCGGCTCATTCAGTTTGCGCAT`
1.39

Form entry - test system: PPARg homodimer (NR concentration 180 nM); read-out: PBM binding z-score; sequence: `GCTAGCAGGCCATTTGGGTAACTCAATGACGGGC`
-0.806

Form entry - test system: PPARg homodimer (NR concentration 180 nM); read-out: PBM binding z-score; sequence: `CAGCCTAGGTCAGGGCCGGTATAGGAGGAACGTT`
0.324
